Entries annotated with measured melting point
Measured Metric: melting point

- Molecule: "CCC1(c2ccccc2)CC(N2C(=O)c3ccccc3C2=O)C(=O)NC1=O (stereo not given)"
  Measured Metric: "melting point"
  Measured Result: "174 to 177 °C"
- Molecule: "C=CCn1c(NNC(=O)CCCl)nc2ccccc2c1=O"
  Measured Metric: "melting point"
  Measured Result: "151 to 153 °C"
- Molecule: "Cc1ccc(-c2ccc3c(c2)C=C(C(=O)Nc2ccc(CCl)cc2)CC3)cc1"
  Measured Metric: "melting point"
  Measured Result: "178 to 179 °C"
- Molecule: "O=C(c1ccc2scnc(=O)c2c1)N1CCCC1"
  Measured Metric: "melting point"
  Measured Result: "232 to 234 °C"
- Molecule: "CCCc1cc(NC(=O)N2CCN(c3ccccc3OC)CC2)c(OC)nc1C"
  Measured Metric: "melting point"
  Measured Result: "109 to 110 °C"
- Molecule: "O=C(CO[C@H]1NC(=O)[C@@H]1NC(=O)c1ccccc1)CC(=O)OCc1ccc([N+](=O)[O-])cc1"
  Measured Metric: "melting point"
  Measured Result: "138 to 139 °C"
- Molecule: "O=C(CBr)CC(=O)Nc1cccc(C(F)(F)F)c1"
  Measured Metric: "melting point"
  Measured Result: "66 to 68 °C"
- Molecule: "Cc1c(-c2ccccc2)c(N2CC[C@](C)(N)C2)c2oc(C(=O)N(C)C)nc2c1C#N"
  Measured Metric: "melting point"
  Measured Result: "202 to 204 °C"
- Molecule: "CN(C)CCN1C(=O)c2ccc3[nH]c4cc(O)c(O)cc4c3c2C1=O"
  Measured Metric: "melting point"
  Measured Result: "> 260 °C"
- Molecule: "CN1C(=O)CC[C@]2(C)c3ccc(-c4cccc(CNC(c5ccccc5)c5ccccc5)c4)cc3CC[C@@H]12"
  Measured Metric: "melting point"
  Measured Result: "55 to 57 °C"
